Cited source for all entries: paper PMC3281842

Biological target: T1, SND1 (aa 650–910) (UniProt Q7KZF4 650-910)
T1 construct: SND1, residues 650-910, extended Tudor domain; also called extended Tudor domain of SND1
T1 sequence (looked up): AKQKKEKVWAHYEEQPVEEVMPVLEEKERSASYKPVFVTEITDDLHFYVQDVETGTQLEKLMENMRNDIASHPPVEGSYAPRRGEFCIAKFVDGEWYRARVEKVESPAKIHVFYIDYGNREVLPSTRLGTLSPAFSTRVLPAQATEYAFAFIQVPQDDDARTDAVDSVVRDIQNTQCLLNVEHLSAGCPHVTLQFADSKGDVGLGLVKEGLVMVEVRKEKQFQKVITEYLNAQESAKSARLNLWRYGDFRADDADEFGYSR
Assay: fluorescence polarisation; fluorescein-labeled peptides; 20 mM Tris pH 7.5, 50 mM NaCl, 1 mM DTT, 0.01% Triton X-100; 25°C; one-site binding model; Kd the average of three independent measurements
Details: both partners purified
Square brackets hold non-standard residues; d marks the D form. Ends that are not written are not given here. Arg(Me2a) = CN(C)C(=N)NCCC[C@H](N)C(=O)O; Arg(Me2s) = CN=C(NC)NCCC[C@H](N)C(=O)O; Arg(Me) = CNC(=N)NCCC[C@H](N)C(=O)O
measured.quantity: Kd

Past entries and their recorded results:
GGRG[Arg(Me2s)]GRG (also: fluorescein label, position not given here, GAR motif peptide named after SmD3; also called SmD3 peptide; source: synthetic peptide (Tufts University Core Services)) [SmD3RSDMA]
56 µM
YPPG[Arg(Me2s)]GGPPP (also: fluorescein label, position not given here, PGM motif stretch of the splicing protein SmB; also called sDMA PGM motif peptide from SmB; source: synthetic peptide (Tufts University Core Services)) [PGM(SmB165SD)]
> 500 µM
A[Arg(Me2a)]TKQTARKSY (also: fluorescein label, position not given here, histone H3 N-terminal tail; C-terminal tyrosine printed at the end of the peptide; also called histone H3R2 peptide, asymmetrically dimethylated; source: synthetic peptide (Tufts University Core Services)) [H3R2me2a]
> 300 µM

Next binder, Kd to be filled in.
In: Identify measured Kd corresponding to A[Arg(Me)]TKQTARKSY (also: fluorescein label, position not given here, histone H3 N-terminal tail; C-terminal tyrosine printed at the end of the peptide; also called histone H3R2 peptide, monomethylated; source: synthetic peptide (Tufts University Core Services)) [H3R2me1]
Out: > 300 µM
